assay: Cytotoxicity test (MTT), U937; assay type: cell-based; conditions: human, U937 cells (monocytic blood cancer-derived cell line); U937, 48 h, 0.01 μM; read-out: Cell viability (% of control)
Below, each of the compounds is paired with its reported viability at 48 h, 0.01 µM value.
RESULT_TYPE: viability at 48 h, 0.01 µM (%)

| COMPOUND | DISPLAY_UNIT | ASSAY_RESULT |
| --- | --- | --- |
| CCCCNC(=S)Nc1nc(C)c(O)c(C)c1C [Compound 18-1] | % | 95.4 |
| COC(=O)Nc1nc(C)c(O)c(C)c1C [Compound 20-1] | % | 97.5 |
| Cc1nc(NC(=O)Nc2ccccc2)c(C)c(C)c1O [Compound 16-2] | % | 89.9 |
| Cc1nc(NS(=O)(=O)c2ccc([N+](=O)[O-])cc2)c(C)c(C)c1O [Compound 22-4] | % | 95.2 |
| Cc1nc(NC(=O)Nc2ccc(Cl)cc2)c(C)c(C)c1O [Compound 16-3] | % | 89.4 |
| Cc1nc(NC(=O)OCCCl)c(C)c(C)c1O [Compound 20-4] | % | 86.1 |
| Cc1cccc(C(C)(C)C)c1NC(=O)Nc1nc(C)c(O)c(C)c1C [Compound 16-4] | % | 95 |
| O=c1[nH]cc(F)c(=O)[nH]1 [5-Fluorouracil, reference compound] | % | 93 |
| CCCCOC(=O)Nc1nc(C)c(O)c(C)c1C [Compound 20-2] | % | 87.4 |
| Cc1nc(NS(=O)(=O)c2cccc3ccccc23)c(C)c(C)c1O [Compound 22-5] | % | 102 |

---

assay: Cytotoxicity test (MTT), U937; format: cell-based; details: human, U937 cells (monocytic blood cancer-derived cell line); U937, 48 h, 0.1 μM; read-out: Cell viability (% of control)
viability at 48 h, 0.1 µM values, listed per item
RESULT_TYPE: viability at 48 h, 0.1 µM

| COMPOUND | RESULT_TYPE | ASSAY_RESULT |
| --- | --- | --- |
| Cc1nc(NC(=S)Nc2ccccc2)c(C)c(C)c1O [Compound 18-4] | viability at 48 h, 0.1 µM | 101% |
| Cc1nc(NS(=O)(=O)c2cccc3ccccc23)c(C)c(C)c1O [Compound 22-5] | viability at 48 h, 0.1 µM | 93.4% |
| Cc1nc(NS(C)(=O)=O)c(C)c(C)c1O [Compound 22-1] | viability at 48 h, 0.1 µM | 94.8% |
| Cc1nc(NC(=S)NC2CCCCC2)c(C)c(C)c1O [Compound 18-3] | viability at 48 h, 0.1 µM | 93.1% |
| Cc1nc(NC(=S)Nc2ccc(Cl)cc2)c(C)c(C)c1O [Compound 18-6] | viability at 48 h, 0.1 µM | 96.8% |
| Cc1nc(NC(=S)NC(=O)c2ccccc2)c(C)c(C)c1O [Compound 18-13] | viability at 48 h, 0.1 µM | 96.8% |
| COCCOC(=O)Nc1nc(C)c(O)c(C)c1C [Compound 20-5] | viability at 48 h, 0.1 µM | 84.2% |
| COc1cccc2c1C(=O)c1c(O)c3c(c(O)c1C2=O)C[C@@](O)(C(=O)CO)C[C@@H]3O[C@H]1C[C@H](N)[C@H](O)[C@H](C)O1 [Doxorubicin, reference compound] | viability at 48 h, 0.1 µM | 91.4% |
| Cc1nc(NC(=O)Nc2ccccc2)c(C)c(C)c1O [Compound 16-2] | viability at 48 h, 0.1 µM | 88.9% |

---

experiment: Cytotoxicity test (MTT), HT-29; assay type: cell-based; conditions: human, HT-29 cells (colorectal cancer cell line); HT-29, 48 h, 1 μM; read-out: Cell viability (% of control)
RESULT_TYPE: viability at 48 h, 1 µM

| MOLECULE_SMILES | ASSAY_RESULT |
| --- | --- |
| CCCCNC(=S)Nc1nc(C)c(O)c(C)c1C | 96.9% |
| Cc1nc(NC(=S)Nc2ccc(Cl)cc2)c(C)c(C)c1O | 83.6% |
| Cc1nc(NC(=O)Nc2cccc3ccccc23)c(C)c(C)c1O | 78.6% |
| Cc1ccc(S(=O)(=O)Nc2nc(C)c(O)c(C)c2C)cc1 | 73.8% |

---

assay: Cytotoxicity test (MTT), HT-29; format: cell-based; settings: human, HT-29 cells (colorectal cancer cell line); HT-29, 48 h, 100 μM; read-out: Cell viability (% of control)
Note to self: viability at 48 h, 100 µM under 60% means Yes, ties and anything higher get No.

| COMPOUND | CATEGORY_LABEL |
| --- | --- |
| Cc1nc(NS(=O)(=O)c2cccc3ccccc23)c(C)c(C)c1O [Compound 22-5] | No |
| Cc1nc(NS(=O)(=O)c2ccc(C(F)(F)F)cc2)c(C)c(C)c1O [Compound 22-3] | No |
| Cc1nc(NC(=S)NC(=O)c2ccccc2)c(C)c(C)c1O [Compound 18-13] | Yes |
| Cc1nc(NC(=O)OCC(C)C)c(C)c(C)c1O [Compound 20-3] | No |
| COC(=O)Nc1nc(C)c(O)c(C)c1C [Compound 20-1] | No |
| Cc1ccc(S(=O)(=O)Nc2nc(C)c(O)c(C)c2C)cc1 [Compound 22-2] | No |
| Cc1cccc(C(C)(C)C)c1NC(=O)Nc1nc(C)c(O)c(C)c1C [Compound 16-4] | Yes |
| Cc1nc(NS(C)(=O)=O)c(C)c(C)c1O [Compound 22-1] | Yes |
| Cc1nc(NC(=O)Nc2cccc3ccccc23)c(C)c(C)c1O [Compound 16-5] | No |
| Cc1nc(NC(=O)NS(=O)(=O)c2ccccc2)c(C)c(C)c1O [Compound 16-6] | Yes |
| Cc1nc(NC(=O)Nc2ccccc2)c(C)c(C)c1O [Compound 16-2] | No |
| CCCCOC(=O)Nc1nc(C)c(O)c(C)c1C [Compound 20-2] | No |
| Cc1nc(NC(=O)Nc2ccc(Cl)cc2)c(C)c(C)c1O [Compound 16-3] | No |
| COCCOC(=O)Nc1nc(C)c(O)c(C)c1C [Compound 20-5] | No |

---

experiment: Cytotoxicity test (MTT), HT-29; format: cell-based; conditions: human, HT-29 cells (colorectal cancer cell line); HT-29, 48 h, 10 μM; read-out: Cell viability (% of control)
Simple rule here: viability at 48 h, 10 µM less than 90% is True, otherwise False.

| MOLECULE_SMILES | CATEGORY_LABEL |
| --- | --- |
| Cc1nc(NS(=O)(=O)c2ccc([N+](=O)[O-])cc2)c(C)c(C)c1O | True |
| Cc1cccc(C(C)(C)C)c1NC(=O)Nc1nc(C)c(O)c(C)c1C | True |
| Cc1nc(NC(=O)Nc2ccccc2)c(C)c(C)c1O | False |
| CCCCOC(=O)Nc1nc(C)c(O)c(C)c1C | False |
| COCCOC(=O)Nc1nc(C)c(O)c(C)c1C | True |

---

assay: Cytotoxicity test (MTT), HT-29; type: cell-based; conditions: human, HT-29 cells (colorectal cancer cell line); HT-29, 48 h, 0.1 μM; read-out: Cell viability (% of control)
RESULT_TYPE: viability at 48 h, 0.1 µM (%)

| COMPOUND | ASSAY_RESULT |
| --- | --- |
| Cc1nc(NS(=O)(=O)c2ccc(C(F)(F)F)cc2)c(C)c(C)c1O | 95 |
| Cc1ccc(S(=O)(=O)Nc2nc(C)c(O)c(C)c2C)cc1 | 76.9 |
| Cc1nc(NC(=O)Nc2ccc(Cl)cc2)c(C)c(C)c1O | 102 |
| Cc1nc(NC(=S)Nc2ccc(Cl)cc2)c(C)c(C)c1O | 86.6 |
| Cc1cccc(C(C)(C)C)c1NC(=O)Nc1nc(C)c(O)c(C)c1C | 76.8 |
| Cc1nc(NC(=O)NS(=O)(=O)c2ccccc2)c(C)c(C)c1O | 85.4 |
| COc1cccc2c1C(=O)c1c(O)c3c(c(O)c1C2=O)C[C@@](O)(C(=O)CO)C[C@@H]3O[C@H]1C[C@H](N)[C@H](O)[C@H](C)O1 [Doxorubicin, reference compound] | 66.9 |
| Cc1nc(NC(=S)NC2CCCCC2)c(C)c(C)c1O | 80.5 |
| COC(=O)Nc1nc(C)c(O)c(C)c1C | 84.9 |
| CCCCOC(=O)Nc1nc(C)c(O)c(C)c1C | 102 |

---

assay: Cytotoxicity test (MTT), U937; assay type: cell-based; conditions: human, U937 cells (monocytic blood cancer-derived cell line); U937, 48 h, 10 μM; read-out: Cell viability (% of control)

| MOLECULE_SMILES | viability at 48 h, 10 µM |
| --- | --- |
| Cc1nc(NC(=S)NC(C)C)c(C)c(C)c1O | 90.8% |
| Cc1nc(NC(=O)Nc2ccc(Cl)cc2)c(C)c(C)c1O | 81% |
| Cc1nc(NC(=S)NC(=O)c2ccccc2)c(C)c(C)c1O | 79% |
| Cc1nc(NC(=S)NC2CCCCC2)c(C)c(C)c1O | 87.7% |
